Could you please report measured growth for the items listed next?
System: M14 melanoma
Test Summary: NCI-60 one-dose screen, 48 h (100 = growth as untreated, 0 = no growth, -100 = all killed)
Measurement Conditions: 10 µM unless noted
About 83,000 compounds went through this panel and 20% of them were active in at least one assay; those are over-represented in the sample as a whole. Active and inactive are the calls of the source. Rule for the calls: active = growth percent below 10; inactive = the rest.

# example entries with known answers
>  <Molecule>
C=C1c2c(Cl)ccc(O)c2C(O)=C2C(=O)[C@]3(O)C(O)=C(C(N)=O)C(=O)[C@@H](N(C)C)[C@@H]3[C@@H](O)[C@H]12

>  <Value Observed>
9.22% (active)

$$$$
>  <Molecule>
CC(C)[C@@H]1NC(=O)[C@]2(C)CSC(=N2)c2ccnc(c2)CNC(=O)C[C@@H](/C=C/CCS)OC1=O

>  <Value Observed>
8.55% (active)

$$$$
>  <Molecule>
CN(C)c1ncc(C#Cc2c(F)cccc2F)c2ccccc12

>  <Value Observed>
86.3% (inactive)

$$$$
>  <Molecule>
COC(=O)c1oc2c(C(=O)/C=C/c3ccc(OC)cc3)c(OCCN3CCOCC3)ccc2c1C

>  <Value Observed>
11.5% (inactive)

$$$$
>  <Molecule>
O=C(CSc1nnc(-c2ccccc2)o1)Nc1ccc(C(=O)/C=C/c2ccccc2)cc1

>  <Value Observed>
66.4% (inactive)

$$$$

For each of the molecules below, note its growth.
1. O=C(Nc1ccc(-n2cc(-c3ccncc3)c(-c3ccc(O)c(Cl)c3)n2)cc1)Nc1cccc(Cl)c1Cl
2. COc1ccc(C2=NN(C(=O)COc3ccc(Cl)cc3)C(O)(c3cc(F)c(Cl)cc3Cl)C2)cc1OC (configuration not stated)

1. 46.9% (inactive)
2. -13.4% (active)

----------
System: SN12C renal
Test Summary: NCI-60 one-dose screen, 48 h (100 = growth as untreated, 0 = no growth, -100 = all killed)
Measurement Conditions: 10 µM unless noted
Experimental: Growth inhibition of the SN12C human tumor cell line is measured as a screen for anti-cancer activity. Cells are grown in 96 well plates and exposed to the test compound for 48 hours. Compounds are tested at a single concentration, which is 10^-5 M for most compounds. The reported endpoint is percent growth (GI% or GIPRCNT), where numbers from 0 - 100% represent growth inhibition, and numbers from -100% - 0 represent cell death. For example, a value of 40 represents 60% growth inhibition. […]
This is part of a sample that, as a whole, favours compounds with a hit. Of some 83,000 tested, about 20% had one in any assay. The source made the active and inactive calls. How the source made its calls: active means growth percent below 10; inactive means the rest.
Could you please report measured growth for the items listed next?

# example entries with known answers
>  <Molecule>
COc1ccc(-c2nn(-c3ccc(NC(=O)Nc4ccc(Cl)c(C(F)(F)F)c4)cc3)cc2-c2ccncc2)cc1Cl

>  <Target Entity>
SN12C renal

>  <growth>
16.5% (inactive)

$$$$
>  <Molecule>
Nc1ncnc2c1ncn2C1OC(COC(c2ccccc2)(c2ccccc2)c2ccccc2)C(O)C1O (configuration not stated)

>  <Target Entity>
SN12C renal

>  <growth>
93.7% (inactive)

$$$$
>  <Molecule>
CCc1c2cc(Cl)ccc2n2cc(Cc3ccccc3)[nH]c(=O)c12

>  <Target Entity>
SN12C renal

>  <growth>
101% (inactive)

$$$$

For each of the molecules below, note its growth.
1. Cc1ccc2[nH]c3nc4cccnc4c(C)c3c2c1
2. C[C@H]1C=C(C[C@@H](O)CCCCCCCCCC[C@@H](O)[C@H]2CCC(=O)O2)C(=O)O1

1: 88.4% (inactive); 2: 117% (inactive)

For each of the molecules below, note its growth.
1. CC(=O)CC/C=C(\C)[C@H](O)[C@H](C)C(=O)O[C@H]1C[C@H](C)C=C2C=C[C@@]3(C)O[C@@H](O)CC(=O)[C@]3(C)[C@H]21
2. O=C(Nc1cccc(-n2ccc3c(NC(=O)c4ccccc4)nccc32)c1)c1cc(N2CCOCC2)cc(C(F)(F)F)c1
3. CC(CN(C)C)CN1c2ccccc2CCc2ccccc21 (configuration not stated)
4. N#CC(C#N)=C(C#N)c1c[nH]c2ccccc12

1: -11.5% (active); 2: 18.8% (inactive); 3: 73.7% (inactive); 4: 79% (inactive)
